Recorded measurements of koff, one per entry
target: T1, recombinant human VEGF165 (human, UniProt P15692 27-191); assay: Biacore SPR, VEGF immobilized, pH 7.4
T1 construct: mature; Isoform VEGF165 of the entry; also called hVEGF165; hVEGF
T1 sequence (P15692 other isoform, or with tags, fused parts or gaps): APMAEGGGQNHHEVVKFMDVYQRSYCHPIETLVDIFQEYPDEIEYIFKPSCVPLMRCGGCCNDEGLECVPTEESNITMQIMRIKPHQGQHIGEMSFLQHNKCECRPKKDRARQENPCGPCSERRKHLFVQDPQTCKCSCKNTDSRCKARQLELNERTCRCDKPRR
Provide the reading as a plain figure in s⁻¹.

- binder: "435-max (scFv, the scFv entry is used; also called Protein Nr; 945) scFv: EIVMTQSPSTLSASVGDRVIITCQASQSIGSSLAWYQQKPGKAPKLLIYTAANLASGVPSRFSGSRSGAEFTLTISSLQPDDFATYYCQNFATSDTVTFGQGTKLTVLGGGGGSGGGGSGGGGSGGGGSEVQLVESGGGLVQPGGSLRLSCKASGFSLNTNYWMCWVRQAPGKGLEWVGCMYTGSYNRAYYASWAKGRFTSSKDTSKNTVYLQMNSLRAEDTAVYYCAKGSNWYSDLWGQGTLVTVSS"
  koff (s⁻¹): 0.000104
- binder: "578-max (scFv, also called EP578max; #821) scFv: EIVMTQSPSTLSASVGDRVIITCQASEIIHSWLAWYQQKPGKAPKLLIYLASTLASGVPSRFSGSGSGTQFTLTISSLQPDDFATYYCQNVYLASTNGANFGQGTKLTVLGGGGGSGGGGSGGGGSGGGGSEVQLVESGGGLVQPGGSLRLSCTASGFSLTDYYYMTWVRQAPGKGLEWVGFIDPDDDPYYATWAKGRFTISRDTSKNTVYLQMNSLRAEDTAVYYCAGGDHNSGWGLDIWGQGTLVTVSS"
  koff (s⁻¹): "3.76e-05"

## Input Find the recorded koff belonging to 567-max (scFv, VL and VH tied by name; also called Protein Nr; 874) scFv: EIVMTQSPSTLSASVGDRVIITCQADQSIYIWLSWYQQKPGKAPKLLIYKASTLESGVPSRFSGSGSGTQFTLTISSLQPDDFATYYCQNNAHYSTNGGTFGQGTKLTVLGGGGGSGGGGSGGGGSGGGGSEVQLVESGGGLVQPGGSLRLSCSVSGFSLSDYYMCWVRQAPGKGLEWVGCLDYFGSTDDASWAKGRFTISKDTSKNTVYLQMNSLRAEDTAVYYCARTDDSRGWGLNIWGQGTLVTVSS and report it.
## Output 0.000167

## Input Request: 509-max (scFv, VL and VH tied by name; also called Protein Nr; 855) scFv: EIVMTQSPSTLSASVGDRVIITCQASQNIRIWLSWYQQKPGKAPKLLIYKASTLESGVPSRFSGSGSGTEFTLTISSLQPDDFATYYCQNNAHYSTNGGTFGQGTKLTVLGGGGGSGGGGSGGGGSGGGGSEVQLVESGGGLVQPGGSLRLSCTASGFSLSSYYMCWVRQAPGKGLEWVGCLDYVGDTDYASWAKGRFTISKDASKNTVYLQMNSLRAEDTAVYYCARTDDSRGWGLNIWGQGTLVTVSS
## Output 0.000537
